- System: Mus musculus
- ASSAY_OVERVIEW: Hypoglycemic activity in alloxan-induced diabetic albino mouse assessed as decrease in blood glucose level at 0.4 mmol/kg, po administered 6 days after alloxan injection measured after 2 to 4 hrs by automated glucose oxidase method relative to control
- Assay type: functional
MEASURE: inhibition in vivo at 400 µmol/kg (%)
// note: answer is a bare numeric in %

# example entries with known answers
{"columns": ["LINE_NOTATION", "UOM", "RESULT_VALUE"],
 "data": [
  ["CCCCNC(=O)NS(=O)(=O)c1ccc(-n2nc(C(=O)O)cc2C)cc1", "%", 2],
  ["CCCCNC(=O)NS(=O)(=O)c1ccc(-n2nc(C)cc2C)cc1", "%", 2],
  ["C=CCNC(=S)NS(=O)(=O)c1ccc(-n2nc(C)cc2C)cc1", "%", -1],
  ["CCNC(=S)NS(=O)(=O)c1ccc(-n2nc(C)cc2C)cc1", "%", 0],
  ["CCNC(=O)NS(=O)(=O)c1ccc(-n2nc(C(=O)O)cc2C)cc1", "%", 0]
]}

Answer with the recorded inhibition in vivo at 400 µmol/kg of Cc1cc(C)n(-c2ccc(S(=O)(=O)NC(=S)Nc3ccccc3)cc2)n1 only.
-3

Answer with the recorded inhibition in vivo at 400 µmol/kg of Cc1cc(C)n(-c2ccc(S(=O)(=O)NC(=S)NCc3ccccc3)cc2)n1 only.
0

Answer with the recorded inhibition in vivo at 400 µmol/kg of Cc1cc(C)n(-c2ccc(S(=O)(=O)NC(=O)NC3CCCCC3)cc2)n1 only.
10

Answer with the recorded inhibition in vivo at 400 µmol/kg of C=CCNC(=S)NS(=O)(=O)c1ccc(-n2nc(C(=O)O)cc2C)cc1 only.
-6

Answer with the recorded inhibition in vivo at 400 µmol/kg of CCCNC(=O)NS(=O)(=O)c1ccc(-n2nc(C(=O)O)cc2C)cc1 only.
1

----------
- System: Mus musculus
- ASSAY_OVERVIEW: Hypoglycemic activity in alloxan-induced diabetic albino mouse assessed as decrease in blood glucose level at 0.4 mmol/kg, po administered 6 days after alloxan injection measured after 2 to 4 hrs by automated glucose oxidase method relative to control
- Type: functional
MEASURE: inhibition in vivo at 400 µmol/kg

# example entries with known answers
{"columns": ["LINE_NOTATION", "TESTED_SYSTEM", "inhibition in vivo at 400 µmol/kg"],
 "data": [
  ["CCCCNC(=S)NS(=O)(=O)c1ccc(-n2nc(C(=O)O)cc2C)cc1", "Mus musculus", "< 1%"],
  ["CCCNC(=S)NS(=O)(=O)c1ccc(-n2nc(C(=O)O)cc2C)cc1", "Mus musculus", "< 1%"]
]}

Moving on to the next compound.
Answer with the recorded inhibition in vivo at 400 µmol/kg of Cc1cc(C(=O)O)nn1-c1ccc(S(=O)(=O)NC(=S)NC2CCCCC2)cc1 only.
1%

----------
- Tested on: Mus musculus
- ASSAY_OVERVIEW: Hypoglycemic activity in alloxan-induced diabetic albino mouse assessed as decrease in blood glucose level at 0.4 mmol/kg, po administered 6 days after alloxan injection measured after 2 to 4 hrs by automated glucose oxidase method relative to control
- Type: functional
MEASURE: inhibition in vivo at 400 µmol/kg (%)
// note: answer is a bare numeric in %

{"columns": ["LINE_NOTATION", "TESTED_SYSTEM", "UOM", "inhibition in vivo at 400 µmol/kg"],
 "data": [
  ["Cc1cc(C(=O)O)nn1-c1ccc(S(=O)(=O)NC(=S)Nc2ccccc2)cc1", "Mus musculus", "%", 0],
  ["Cc1cc(C(=O)O)nn1-c1ccc(S(=O)(=O)NC(=O)NCc2ccccc2)cc1", "Mus musculus", "%", 0]
]}

Answer with the recorded inhibition in vivo at 400 µmol/kg of CCNC(=S)NS(=O)(=O)c1ccc(-n2nc(C(=O)O)cc2C)cc1 only.
-2

Answer with the recorded inhibition in vivo at 400 µmol/kg of Cc1cc(C(=O)O)nn1-c1ccc(S(=O)(=O)NC(=O)NC2CCCCC2)cc1 only.
1

Answer with the recorded inhibition in vivo at 400 µmol/kg of Cc1cc(C)n(-c2ccc(S(=O)(=O)NC(=O)NNC(=N)N)cc2)n1 only.
3

Answer with the recorded inhibition in vivo at 400 µmol/kg of CCCCNC(=S)NS(=O)(=O)c1ccc(-n2nc(C)cc2C)cc1 only.
1

----------
- Tested on: Mus musculus
- ASSAY_OVERVIEW: Hypoglycemic activity in alloxan-induced diabetic albino mouse assessed as decrease in blood glucose level at 0.4 mmol/kg, po administered 6 days after alloxan injection measured after 2 to 4 hrs by automated glucose oxidase method relative to control
- Assay type: functional
Measured inhibition in vivo at 400 µmol/kg by item

# example entries with known answers
{"columns": ["LINE_NOTATION", "inhibition in vivo at 400 µmol/kg"],
 "data": [
  ["Cc1cc(C)n(-c2ccc(S(=O)(=O)NC(=O)NCc3ccccc3)cc2)n1", "< 1%"],
  ["CCNC(=O)NS(=O)(=O)c1ccc(-n2nc(C)cc2C)cc1", "< 1%"],
  ["CCCNC(=O)NS(=O)(=O)c1ccc(-n2nc(C)cc2C)cc1", "< 1%"],
  ["Cc1cc(C(=O)O)nn1-c1ccc(S(=O)(=O)NC(=S)NCc2ccccc2)cc1", "< 2%"],
  ["CCCNC(=S)NS(=O)(=O)c1ccc(-n2nc(C)cc2C)cc1", "< 1%"]
]}

Moving on to the next compound.
Answer with the recorded inhibition in vivo at 400 µmol/kg of Cc1cc(C)n(-c2ccc(S(=O)(=O)NC(=S)NC3CCCCC3)cc2)n1 only.
< 2%
